Measured MIC values are reported for all entries that follow.
system: Streptococcus pneumoniae; experiment: Antimicrobial activity against Streptococcus pneumoniae MTCC 1936 after 24 to 48 hr by broth microdilution method; type: functional
The figure you give is taken to be in µg/mL; do not add the unit.

{"compound": "COc1ccc2[nH]c(=O)c(C3NC(=O)NC4=C3C(=O)CC(C)(C)C4)cc2c1 (stereo not given)", "subject_of_test": "Streptococcus pneumoniae", "MIC / µg/mL": 250}

Task item: Dear colleague, I am looking for the recorded MIC of the following compound: COc1ccc2[nH]c(=O)c(C3NC(=S)NC4=C3C(=O)CC(C)(C)C4)cc2c1 (stereo not given)
Reply: 200

Task item: Dear colleague, I am looking for the recorded MIC of the following compound: CC1(C)CC(=O)C2=C(C1)NC(=O)NC2c1cc2ccccc2[nH]c1=S (stereo not given)
Reply: 250

Task item: Dear colleague, I am looking for the recorded MIC of the following compound: CC1(C)CC(=O)C2=C(C1)NC(=S)NC2c1cc2ccccc2[nH]c1=S (stereo not given)
Reply: 500

Task item: Dear colleague, I am looking for the recorded MIC of the following compound: O=C1NC2=C(C(=O)CCC2)C(c2cc3ccccc3[nH]c2=O)N1 (stereo not given)
Reply: 100

----------
system: Streptococcus pneumoniae; experiment: Antimicrobial activity against Streptococcus pneumoniae MTCC 1936 after 24 to 48 hr by broth microdilution method; assay type: functional
Lab note: compare MIC with 100 µg/mL, writing Y if less and N if equal or more.

The following compounds have reported results that may help.
{"compound": "CC1(C)CC(=O)C2=C(C1)NC(=S)NC2c1cc2cc(Cl)ccc2[nH]c1=O (stereo not drawn)", "subject_of_test": "Streptococcus pneumoniae", "qualitative_label": "Y"}
{"compound": "O=C1CCCC2=C1C(c1cc3ccccc3[nH]c1=O)NC(=S)N2c1ccccc1 (stereo not drawn)", "subject_of_test": "Streptococcus pneumoniae", "qualitative_label": "N"}
{"compound": "O=C(N[C@H](CO)[C@H](O)c1ccc([N+](=O)[O-])cc1)C(Cl)Cl", "subject_of_test": "Streptococcus pneumoniae", "qualitative_label": "Y"}
{"compound": "O=C1CCCC2=C1C(c1cc3ccccc3[nH]c1=O)NC(=S)N2 (stereo not drawn)", "subject_of_test": "Streptococcus pneumoniae", "qualitative_label": "N"}
{"compound": "O=C1NC2=C(C(=O)CCC2)C(c2cc3cc(Cl)ccc3[nH]c2=O)N1 (stereo not drawn)", "subject_of_test": "Streptococcus pneumoniae", "qualitative_label": "N"}
{"compound": "CC1(C)CC(=O)C2=C(C1)N(c1ccccc1)C(=S)NC2c1cc2ccccc2[nH]c1=O (stereo not drawn)", "subject_of_test": "Streptococcus pneumoniae", "qualitative_label": "N"}
{"compound": "O=C1CCCC2=C1C(c1cc3cc(Cl)ccc3[nH]c1=O)NC(=S)N2 (stereo not drawn)", "subject_of_test": "Streptococcus pneumoniae", "qualitative_label": "N"}
{"compound": "CCn1cc(C(=O)O)c(=O)c2cc(F)c(N3CCNCC3)cc21", "subject_of_test": "Streptococcus pneumoniae", "qualitative_label": "Y"}

Task item: Report whether reported MIC is lower than 100 µg/mL (strictly) for CC1(C)CC(=O)C2=C(C1)NC(=O)NC2c1cc2ccccc2[nH]c1=O (stereo not drawn)
Reply: N

Task item: Report whether reported MIC is lower than 100 µg/mL (strictly) for O=C(O)c1cn(C2CC2)c2cc(N3CCNCC3)c(F)cc2c1=O
Reply: Y

Task item: Report whether reported MIC is lower than 100 µg/mL (strictly) for O=C1CCCC2=C1C(c1cc3ccccc3[nH]c1=S)NC(=S)N2 (stereo not drawn)
Reply: N

Task item: Report whether reported MIC is lower than 100 µg/mL (strictly) for O=C1NC2=C(C(=O)CCC2)C(c2cc3ccccc3[nH]c2=S)N1 (stereo not drawn)
Reply: N

Task item: Report whether reported MIC is lower than 100 µg/mL (strictly) for Cc1ccc2[nH]c(=O)c(C3NC(=S)N(c4ccccc4)C4=C3C(=O)CC(C)(C)C4)cc2c1 (stereo not drawn)
Reply: N

----------
Measured MIC values are reported for all entries that follow.
tested on: Vibrio cholerae; assay: Antimicrobial activity against Vibrio cholerae MTCC 3906 after 24 to 48 hr by broth microdilution method; assay type: functional

Consider the worked cases shown below.
{"compound": "O=C(N[C@H](CO)[C@H](O)c1ccc([N+](=O)[O-])cc1)C(Cl)Cl [CHLORAMPHENICOL]", "MIC": "50 µg/mL"}
{"compound": "O=C1CCCC2=C1C(c1cc3ccccc3[nH]c1=O)NC(=S)N2 (centres undefined)", "MIC": "500 µg/mL"}

Task item: Dear colleague, I am looking for the recorded MIC of the following compound: COc1ccc2[nH]c(=O)c(C3NC(=O)NC4=C3C(=O)CCC4)cc2c1 (centres undefined)
Reply: 500 µg/mL

Task item: Dear colleague, I am looking for the recorded MIC of the following compound: CC1(C)CC(=O)C2=C(C1)NC(=S)NC2c1cc2ccccc2[nH]c1=S (centres undefined)
Reply: 250 µg/mL

----------
test system: Salmonella typhi; experiment: Antimicrobial activity against Salmonella enterica subsp. enterica serovar Typhi MTCC 98 after 24 to 48 hr by broth microdilution method; assay type: functional
assay_endpoint: MIC (µg/mL)
The figure you give is taken to be in µg/mL; do not add the unit.

Consider the worked cases shown below.
{"compound": "O=C(O)c1cn(C2CC2)c2cc(N3CCNCC3)c(F)cc2c1=O", "unit_name": "µg/mL", "MIC": 25}
{"compound": "O=C1CCCC2=C1C(c1cc3ccccc3[nH]c1=O)NC(=S)N2c1ccccc1 (stereo not drawn)", "unit_name": "µg/mL", "MIC": 100}
{"compound": "O=C1CCCC2=C1C(c1cc3cc(Cl)ccc3[nH]c1=O)NC(=S)N2 (stereo not drawn)", "unit_name": "µg/mL", "MIC": 200}
{"compound": "CC1(C)CC(=O)C2=C(C1)NC(=O)NC2c1cc2cc(Cl)ccc2[nH]c1=O (stereo not drawn)", "unit_name": "µg/mL", "MIC": 200}
{"compound": "COc1ccc2[nH]c(=O)c(C3NC(=S)NC4=C3C(=O)CC(C)(C)C4)cc2c1 (stereo not drawn)", "unit_name": "µg/mL", "MIC": 250}

Task item: Dear colleague, I am looking for the recorded MIC of the following compound: O=C(N[C@H](CO)[C@H](O)c1ccc([N+](=O)[O-])cc1)C(Cl)Cl
Reply: 50

Task item: Dear colleague, I am looking for the recorded MIC of the following compound: CCn1cc(C(=O)O)c(=O)c2cc(F)c(N3CCNCC3)cc21
Reply: 10

Task item: Dear colleague, I am looking for the recorded MIC of the following compound: O=C1CCCC2=C1C(c1cc3ccccc3[nH]c1=O)NC(=S)N2 (stereo not drawn)
Reply: 500

Task item: Dear colleague, I am looking for the recorded MIC of the following compound: O=C1NC2=C(C(=O)CCC2)C(c2cc3ccccc3[nH]c2=O)N1 (stereo not drawn)
Reply: 250

Task item: Dear colleague, I am looking for the recorded MIC of the following compound: Cc1ccc2[nH]c(=O)c(C3NC(=S)N(c4ccccc4)C4=C3C(=O)CC(C)(C)C4)cc2c1 (stereo not drawn)
Reply: 500

----------
test system: Vibrio cholerae; test: Antimicrobial activity against Vibrio cholerae MTCC 3906 after 24 to 48 hr by broth microdilution method; type: functional
assay_endpoint: MIC

Consider the worked cases shown below.
{"compound": "CC1(C)CC(=O)C2=C(C1)NC(=S)NC2c1cc2ccccc2[nH]c1=O (stereo not given)", "MIC": "500 µg/mL"}
{"compound": "CCn1cc(C(=O)O)c(=O)c2cc(F)c(N3CCNCC3)cc21", "MIC": "10 µg/mL"}
{"compound": "Cc1ccc2[nH]c(=O)c(C3NC(=S)N(c4ccccc4)C4=C3C(=O)CCC4)cc2c1 (stereo not given)", "MIC": "500 µg/mL"}
{"compound": "Cc1ccc2[nH]c(=O)c(C3NC(=S)N(c4ccccc4)C4=C3C(=O)CC(C)(C)C4)cc2c1 (stereo not given)", "MIC": "250 µg/mL"}

Attention now turns to another entry.
Task item: Dear colleague, I am looking for the recorded MIC of the following compound: Cc1ccc2[nH]c(=O)c(C3NC(=O)NC4=C3C(=O)CC(C)(C)C4)cc2c1 (stereo not given)
Reply: 1000 µg/mL

----------
system: Escherichia coli; test: Antimicrobial activity against Escherichia coli MTCC 443 after 24 to 48 hr by broth microdilution method; type: functional
Measured log10 of MIC values are reported for all entries that follow.
Transform log10 | Measure MIC | Unit µg/mL

{"compound": "O=C(O)c1cn(C2CC2)c2cc(N3CCNCC3)c(F)cc2c1=O [CIPROFLOXACIN]", "log10 of MIC": 1.40}
{"compound": "O=C1CCCC2=C1C(c1cc3ccccc3[nH]c1=O)NC(=S)N2 (centres undefined)", "log10 of MIC": 2.00}
{"compound": "Cc1ccc2[nH]c(=O)c(C3NC(=S)NC4=C3C(=O)CCC4)cc2c1 (centres undefined)", "log10 of MIC": 2.70}

Attention now turns to another entry.
Task item: Dear colleague, I am looking for the recorded log10 of MIC of the following compound: COc1ccc2[nH]c(=O)c(C3NC(=S)NC4=C3C(=O)CCC4)cc2c1 (centres undefined)
Reply: 1.70
